This section presents molecules with their documented pKi values.
Molecular target: human GABA A receptor α5β3γ2 (Homo sapiens (Human), UniProt P18507+P31644)
Assay: [3H]flumazenil competition binding assay, human GABA A α5β3γ2 receptors expressed in HEK293 cells
Conditions: human receptor; displacement of [3H]flumazenil (0.5 nM); means of two determinations; read-out: hKi GABAAa5
For clarity, pKi is expressed as the negative log10 of concentration in mol/L.

CCOC(=O)C(C)NC(=O)c1ccc(OCc2c(-c3ccccc3)noc2C)nc1 (stereo not drawn): 7.69

pKi lookup needed for Cc1onc(-c2ccccc2)c1COc1ccc(C(=O)NC2CCN(Cc3ccccc3)CC2)cn1 , thanks.
8.14

pKi lookup needed for Cc1onc(-c2ccccn2)c1COc1ccc(C(=O)NC2CC2)cn1 , thanks.
8.80

pKi lookup needed for COC(=O)c1ccc(OCc2c(-c3ccncn3)noc2C)nc1 , thanks.
7.95

pKi lookup needed for CCOC(=O)c1ccc(OCc2c(-c3ccccc3)noc2C)nc1C , thanks.
7.71

pKi lookup needed for Cc1onc(-c2ccccc2)c1COc1ccc(C(F)(F)F)cn1 , thanks.
7.22

Origin of values: patent US8846719B2
